The reported measurements were obtained from paper PMC9738179.

System: human foreskin fibroblasts (HFF)
Assay: Cytotoxicity in non-infected HFF by alamarBlue assay
Assay type: cell-based
Settings: 2.5 µM
testReadout: HFF Viability (%)

compound	assayedSystem	testReadout	measurementUnits	number
Cc1ccc(C(C)C)cc1.Cc1ccc(C(C)C)cc1.Cc1cn(Cc2cn(Cc3ccccc3[S+]3[Ru-]4[S+](Cc5ccc(C(C)(C)C)cc5)[Ru-]3[S+]4Cc3ccc(C(C)(C)C)cc3)nn2)c(=O)[nH]c1=O.[Cl-] (centres unmarked)	human foreskin fibroblasts (HFF)	HFF Viability (%)	%	39
CC(C)(C)c1ccc(C[S]2[Ru]3[S](Cc4ccc(C(C)(C)C)cc4)[Ru+]2[S]3c2ccc(-n3cc(Cn4cnc5c(N)ncnc54)nn3)cc2)cc1.Cc1ccc(C(C)C)cc1.Cc1ccc(C(C)C)cc1.[Cl-]	human foreskin fibroblasts (HFF)	HFF Viability (%)	%	45
CC(C)(C)c1ccc(C[S]2[Ru]3[S](Cc4ccc(C(C)(C)C)cc4)[Ru+]2[S]3c2ccccc2Cn2cc(Cn3ccc(N)nc3=O)nn2)cc1.Cc1ccc(C(C)C)cc1.Cc1ccc(C(C)C)cc1.[Cl-]	human foreskin fibroblasts (HFF)	HFF Viability (%)	%	38
CC(C)(C)c1ccc(C[S]2[Ru]3[S](Cc4ccc(C(C)(C)C)cc4)[Ru+]2[S]3c2ccccc2Cn2cc(Cn3cnc4c(N)ncnc43)nn2)cc1.Cc1ccc(C(C)C)cc1.Cc1ccc(C(C)C)cc1.[Cl-]	human foreskin fibroblasts (HFF)	HFF Viability (%)	%	52
CC(C)(C)c1ccc(C[S]2[Ru]3[S](Cc4ccc(C(C)(C)C)cc4)[Ru+]2[S]3c2ccc(-n3cc(CO)nn3)cc2)cc1.Cc1ccc(C(C)C)cc1.Cc1ccc(C(C)C)cc1.[Cl-]	human foreskin fibroblasts (HFF)	HFF Viability (%)	%	59
